molecular target: UniProtKB P08659; assay: inhibition of purified Photinus pyralis luciferase – biochemical, luminescence, dose response (AID 1891)
Sequence (P08659 whole entry): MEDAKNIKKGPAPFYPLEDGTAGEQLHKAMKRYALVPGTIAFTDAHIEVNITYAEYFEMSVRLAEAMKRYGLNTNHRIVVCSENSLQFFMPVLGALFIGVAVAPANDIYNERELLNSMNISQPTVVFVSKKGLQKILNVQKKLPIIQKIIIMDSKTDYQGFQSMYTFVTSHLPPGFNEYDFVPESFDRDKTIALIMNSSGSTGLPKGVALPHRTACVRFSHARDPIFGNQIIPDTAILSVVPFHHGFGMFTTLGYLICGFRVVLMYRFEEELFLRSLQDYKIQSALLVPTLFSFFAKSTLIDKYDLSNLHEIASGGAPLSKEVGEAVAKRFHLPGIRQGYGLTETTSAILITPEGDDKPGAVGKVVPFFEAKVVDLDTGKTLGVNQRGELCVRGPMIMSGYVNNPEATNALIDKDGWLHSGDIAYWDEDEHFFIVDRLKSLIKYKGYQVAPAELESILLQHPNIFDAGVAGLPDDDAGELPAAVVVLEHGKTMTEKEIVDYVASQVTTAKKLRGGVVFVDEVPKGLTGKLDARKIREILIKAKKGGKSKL
The source made the active and inactive calls.
# EC50 listing for each entry below

Please review the entries below; each comes with its answer.
{"CHEMICAL_STRUCTURE": "Fc1ccccc1Nc1nc2ccccc2o1", "TARGET_SYSTEM": "UniProtKB P08659", "EC50": "0.83 µM (active)"}
{"CHEMICAL_STRUCTURE": "COc1ccc(CO/N=C/c2c(C)nc(O)nc2O)cc1", "TARGET_SYSTEM": "UniProtKB P08659", "EC50": "> 112 µM (not active)"}
{"CHEMICAL_STRUCTURE": "Cc1noc(C)c1CSc1nnc2scc(-c3ccc(Cl)cc3)n12", "TARGET_SYSTEM": "UniProtKB P08659", "EC50": "> 112 µM (not active)"}
{"CHEMICAL_STRUCTURE": "CCOc1cc2c(cc1C(C)(C)C)NC(=O)CS2", "TARGET_SYSTEM": "UniProtKB P08659", "EC50": "> 112 µM (not active)"}
{"CHEMICAL_STRUCTURE": "COc1cc(SC)ccc1C(=O)Nc1nc(C)cs1", "TARGET_SYSTEM": "UniProtKB P08659", "EC50": "0.511 µM (active)"}

IN: Consider the compound shown here: `O=C(/C=C/Nc1ccc(Oc2ccccc2)cc1)c1ccco1` What is its recorded EC50?
OUT: 0.617 µM (active)

IN: Consider the compound shown here: `COc1cccc(/C=N/Nc2ccc(S(=O)(=O)O)cc2)c1O` What is its recorded EC50?
OUT: 3.91 µM (active)

IN: Consider the compound shown here: `CCn1ccc(C(=O)Nc2c(C)nn(Cc3c(F)c(F)c(F)c(F)c3F)c2C)n1` What is its recorded EC50?
OUT: > 112 µM (not active)

====

# AC50 listing for each entry below
molecular target: Cytochrome P450 2D6 (Homo sapiens, UniProt P10635);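 note: CYP2D6 member of a cytochrome P450 panel assay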
Sequence (P10635 whole entry): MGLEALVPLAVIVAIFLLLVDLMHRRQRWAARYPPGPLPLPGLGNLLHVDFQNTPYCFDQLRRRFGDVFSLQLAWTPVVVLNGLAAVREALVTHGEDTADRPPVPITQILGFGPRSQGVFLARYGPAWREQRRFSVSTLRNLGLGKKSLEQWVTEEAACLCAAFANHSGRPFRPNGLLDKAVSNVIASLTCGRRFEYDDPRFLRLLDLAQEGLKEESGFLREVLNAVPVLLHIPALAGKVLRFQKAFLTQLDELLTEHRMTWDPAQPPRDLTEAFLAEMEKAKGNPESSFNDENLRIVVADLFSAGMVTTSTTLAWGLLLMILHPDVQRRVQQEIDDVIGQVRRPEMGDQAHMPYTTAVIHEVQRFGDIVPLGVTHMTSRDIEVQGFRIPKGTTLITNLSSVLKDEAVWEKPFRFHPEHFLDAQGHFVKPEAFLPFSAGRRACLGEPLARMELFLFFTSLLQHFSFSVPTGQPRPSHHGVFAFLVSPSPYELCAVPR

Please review the entries below; each comes with its answer.
{"COMPOUND": "Cc1ccc(-n2nnnc2C(=Cc2ccc(N(C)C)cc2)c2nnnn2-c2ccc(C)cc2)cc1", "AC50": "15.8 µM (inconclusive)"}
{"COMPOUND": "Cn1nc(C(=O)NC2CCCCC2)c2ccccc2c1=O", "AC50": "10 µM (inconclusive)"}
{"COMPOUND": "COc1ccc([N+](=O)[O-])cc1NCc1ccccc1C", "AC50": "17.8 µM (inconclusive)"}
{"COMPOUND": "COc1cccc(-c2nccc(NCc3cccnc3)n2)c1", "AC50": "25.1 µM (inconclusive)"}
{"COMPOUND": "C/C(CCN1CCCc2nc(C)c(C)cc21)=N\\OC[C@@H](O)COCc1ccco1", "AC50": "3.16 µM (inconclusive)"}

Turning to the following compound.
IN: Find AC50 (Cytochrome P450 2D6 (Homo sapiens, UniProt P10635)) for the entry CCCS(=O)(=O)N1CCCC(C(=O)NCCN(C)Cc2ccccc2)C1 (configuration not stated)
OUT: 5.01 µM (inconclusive)

====

Molecular target: UniProtKB Q8IL11
Sequence (Q8IL11 whole entry): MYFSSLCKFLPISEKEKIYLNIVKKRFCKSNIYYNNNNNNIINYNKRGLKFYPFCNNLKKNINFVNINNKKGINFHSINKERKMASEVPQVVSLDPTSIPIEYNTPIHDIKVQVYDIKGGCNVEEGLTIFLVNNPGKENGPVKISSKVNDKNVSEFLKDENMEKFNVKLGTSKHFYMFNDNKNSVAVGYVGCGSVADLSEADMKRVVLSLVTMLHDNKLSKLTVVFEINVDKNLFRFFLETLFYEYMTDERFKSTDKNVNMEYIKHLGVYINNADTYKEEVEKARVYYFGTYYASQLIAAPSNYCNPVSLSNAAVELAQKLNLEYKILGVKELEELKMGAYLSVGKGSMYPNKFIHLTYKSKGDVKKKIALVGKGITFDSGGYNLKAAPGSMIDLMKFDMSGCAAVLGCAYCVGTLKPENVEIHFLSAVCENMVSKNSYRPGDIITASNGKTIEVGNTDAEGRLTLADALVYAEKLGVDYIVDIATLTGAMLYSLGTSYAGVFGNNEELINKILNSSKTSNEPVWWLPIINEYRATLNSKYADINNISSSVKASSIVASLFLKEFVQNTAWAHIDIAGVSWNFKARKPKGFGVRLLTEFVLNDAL
Test: P. falciparum M17LAP inhibitors, primary screen, biochemical, fluorogenic H-Leu-NHMec substrate, 1536-well (AID 1619)
Assay type: functional
Calls of active or inactive are those of the source.
# IC50 listing for each entry below

Please review the entries below; each comes with its answer.
{"CHEMICAL_STRUCTURE": "O=C(O)CCCNC(=O)/C(=C\\C=C\\c1ccccc1)NC(=O)c1ccccc1Cl", "IC50": "86.8 µM (active)"}
{"CHEMICAL_STRUCTURE": "N#C/C(=C\\c1ccc(N2CCOCC2)o1)C(=O)N1CCOCC1", "IC50": "99.7 µM (active)"}
{"CHEMICAL_STRUCTURE": "COc1cc(CNc2nc[nH]n2)cc(Br)c1OC", "IC50": "8.2 µM (active)"}
{"CHEMICAL_STRUCTURE": "O=C(O)c1cccc(S(=O)(=O)Nc2ccc(O)cc2Sc2nc3ccccc3s2)c1", "IC50": "9.02 µM (active)"}

Turning to the following compound.
IN: Consider the compound shown here: `CCN1CCN(Cc2ccc(NC(=O)Nc3ccc(OC)cc3)cc2)CC1` What is its recorded IC50?
OUT: 25.1 µM (active)

====

assay: HIV-1 AD8 envelope cell-cell fusion blockers – cherry-pick, dose response (AID 652062); type: functional, cell-based;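 note: luciferase signal from cell-cell fusion driven by HIV-1 clade B AD8 Env; potency is for inhibitors of fusion seen as a drop in luminescence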
Calls of active or inactive are those of the source.
ENDPOINT_LABEL: AC50

Please review the entries below; each comes with its answer.
{"COMPOUND": "Cc1cc(C)c(CN2CCN(C(=O)Cn3ccc(NC(=O)OCc4ccccc4)nc3=O)CC2)c(C)c1", "ENDPOINT_RESULT": "4.37 µM (active)"}
{"COMPOUND": "c1cnc2ccc(C(c3nnnn3C3CCCCC3)N3CCCCC3)cc2c1 (stereo not given)", "ENDPOINT_RESULT": "10.1 µM (active)"}
{"COMPOUND": "CC(C)c1ccc(N(C(=O)c2csnn2)C(C(=O)NC2CCCC2)c2ccncc2)cc1 (stereo not given)", "ENDPOINT_RESULT": "1.76 µM (active)"}
{"COMPOUND": "COc1cccc(/C=N/Nc2ncc(C(F)(F)F)cc2Cl)c1O", "ENDPOINT_RESULT": "7.04 µM (active)"}

IN: Consider the compound shown here: `O=C(CCc1ccc(S(=O)(=O)N2CCOCC2)cc1)Nc1nc(COc2ccccc2)cs1` What is its recorded AC50?
OUT: 4.58 µM (active)

====

AC50 values recorded for Cytochrome P450 3A4 (Homo sapiens, UniProt P08684)

Please review the entries below; each comes with its answer.
{"MOLECULE": "CC(C)[C@@H]1O[C@H](/C=C\\c2ccccc2)OCC1(C)C", "AC50": "5.01 µM (inconclusive)"}
{"MOLECULE": "O=c1c(-c2ccc(F)cc2)nc2cncnc2n1-c1ccccc1", "AC50": "12.6 µM (inconclusive)"}

IN: Consider the molecule shown here: CC1CC2(CCCCC2)N2C(=O)C(=O)c3cccc1c32 (configuration not stated) What is its recorded AC50?
OUT: 25.1 µM (inconclusive)

IN: Consider the molecule shown here: `Cn1nc(C(=O)NC2CCCCC2)c2ccccc2c1=O` What is its recorded AC50?
OUT: 5.01 µM (inconclusive)

IN: Consider the molecule shown here: `CC(C)C[C@H](NC(=O)[C@@H]1O[C@H]1C(=O)O)C(=O)NCCCCN=C(N)N` What is its recorded AC50?
OUT: 0.158 µM (inconclusive)

IN: Consider the molecule shown here: `CN(C)Cc1ccccc1-c1nccc(Nc2ccc(F)cc2)n1` What is its recorded AC50?
OUT: 15.8 µM (inconclusive)

IN: Consider the molecule shown here: `Cc1cccn2c(/C=N/OCc3cccc(F)c3)c(-c3ccc(Cl)cc3)nc12` What is its recorded AC50?
OUT: 14.1 µM (inconclusive)

====

target: Voltage-dependent T-type calcium channel subunit alpha-1H (Homo sapiens, UniProt O95180); assay type: functional;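 note: channel activity triggered by adding a high calcium stimulation buffer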
Sequence (O95180 whole entry): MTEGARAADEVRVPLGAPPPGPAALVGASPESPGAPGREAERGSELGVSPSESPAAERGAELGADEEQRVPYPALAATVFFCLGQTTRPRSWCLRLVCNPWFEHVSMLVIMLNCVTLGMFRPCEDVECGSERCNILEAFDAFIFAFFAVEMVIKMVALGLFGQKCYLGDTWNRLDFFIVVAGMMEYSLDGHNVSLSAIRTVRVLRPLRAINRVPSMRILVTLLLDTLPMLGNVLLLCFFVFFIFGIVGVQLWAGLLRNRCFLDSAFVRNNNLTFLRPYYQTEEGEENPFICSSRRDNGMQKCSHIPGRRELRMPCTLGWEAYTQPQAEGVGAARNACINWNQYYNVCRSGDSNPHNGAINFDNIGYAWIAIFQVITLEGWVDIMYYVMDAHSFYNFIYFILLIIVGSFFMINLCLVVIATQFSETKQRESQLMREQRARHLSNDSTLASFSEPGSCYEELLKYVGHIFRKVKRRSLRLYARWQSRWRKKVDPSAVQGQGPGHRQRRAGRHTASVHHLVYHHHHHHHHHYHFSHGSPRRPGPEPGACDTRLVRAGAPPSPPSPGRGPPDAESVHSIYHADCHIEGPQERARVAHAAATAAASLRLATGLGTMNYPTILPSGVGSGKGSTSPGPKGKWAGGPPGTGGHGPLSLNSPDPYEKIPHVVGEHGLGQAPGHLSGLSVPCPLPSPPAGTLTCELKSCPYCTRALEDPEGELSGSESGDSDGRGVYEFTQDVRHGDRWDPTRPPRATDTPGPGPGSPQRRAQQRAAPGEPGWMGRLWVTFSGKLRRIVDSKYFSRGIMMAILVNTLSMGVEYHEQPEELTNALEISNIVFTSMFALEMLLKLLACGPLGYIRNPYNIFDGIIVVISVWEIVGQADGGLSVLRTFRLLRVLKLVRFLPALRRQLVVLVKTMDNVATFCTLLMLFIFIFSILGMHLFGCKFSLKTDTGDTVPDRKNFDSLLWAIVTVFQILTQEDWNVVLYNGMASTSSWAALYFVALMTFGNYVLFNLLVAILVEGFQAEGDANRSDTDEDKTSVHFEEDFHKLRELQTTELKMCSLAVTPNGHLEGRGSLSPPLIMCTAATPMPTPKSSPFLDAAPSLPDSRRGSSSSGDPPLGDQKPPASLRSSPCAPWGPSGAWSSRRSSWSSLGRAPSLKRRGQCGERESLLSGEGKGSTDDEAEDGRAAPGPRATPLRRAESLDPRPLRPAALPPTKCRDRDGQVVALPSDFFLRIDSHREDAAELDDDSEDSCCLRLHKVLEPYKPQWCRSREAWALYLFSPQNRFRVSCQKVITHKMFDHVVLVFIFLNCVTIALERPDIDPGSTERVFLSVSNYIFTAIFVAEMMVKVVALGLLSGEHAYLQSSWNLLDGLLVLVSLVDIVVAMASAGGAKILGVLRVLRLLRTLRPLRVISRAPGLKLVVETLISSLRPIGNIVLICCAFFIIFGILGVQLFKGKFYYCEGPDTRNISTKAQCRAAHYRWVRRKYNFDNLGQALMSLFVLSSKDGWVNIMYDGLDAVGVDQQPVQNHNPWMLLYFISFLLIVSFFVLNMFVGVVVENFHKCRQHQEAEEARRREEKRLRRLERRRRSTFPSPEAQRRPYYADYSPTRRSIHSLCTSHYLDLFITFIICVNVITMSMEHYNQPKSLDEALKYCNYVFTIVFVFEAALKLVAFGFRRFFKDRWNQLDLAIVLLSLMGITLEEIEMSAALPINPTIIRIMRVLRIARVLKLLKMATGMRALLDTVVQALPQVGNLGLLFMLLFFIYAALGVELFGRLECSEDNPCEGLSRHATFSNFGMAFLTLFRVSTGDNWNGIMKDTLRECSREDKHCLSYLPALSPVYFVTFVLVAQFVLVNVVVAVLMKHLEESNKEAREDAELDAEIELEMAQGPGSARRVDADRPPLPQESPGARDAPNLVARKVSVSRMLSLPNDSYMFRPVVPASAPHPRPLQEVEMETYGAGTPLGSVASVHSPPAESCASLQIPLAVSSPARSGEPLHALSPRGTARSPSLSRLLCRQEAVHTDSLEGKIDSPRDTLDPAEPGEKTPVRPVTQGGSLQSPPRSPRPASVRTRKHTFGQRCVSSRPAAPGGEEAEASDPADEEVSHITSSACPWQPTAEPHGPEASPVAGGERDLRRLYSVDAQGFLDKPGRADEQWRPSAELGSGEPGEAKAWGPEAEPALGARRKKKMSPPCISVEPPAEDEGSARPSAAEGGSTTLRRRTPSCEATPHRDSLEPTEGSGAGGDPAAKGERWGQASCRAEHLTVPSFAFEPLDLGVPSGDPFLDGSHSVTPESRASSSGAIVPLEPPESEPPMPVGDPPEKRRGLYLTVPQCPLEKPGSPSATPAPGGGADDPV
Calls of active or inactive are those of the source.
# EC50 listing for each entry below

IN: Find EC50 (Voltage-dependent T-type calcium channel subunit alpha-1H (Homo sapiens, UniProt O95180)) for the entry Cc1ccccc1NC(=O)N1CCCC(c2nc(-c3ccc(C(C)C)cc3)no2)C1 (stereo not given)
OUT: 8.11 µM (active)

IN: Find EC50 (Voltage-dependent T-type calcium channel subunit alpha-1H (Homo sapiens, UniProt O95180)) for the entry `Cc1cccc(NC(=O)CSc2nc3ccccc3o2)c1`
OUT: 4.44 µM (active)
